# Test system: HEp-2
# procedure_details: Cytotoxicity against human Hep2 cells at 30 uM after 48 hrs by SRB assay
# Type: functional
# assay_context: HEp-2, 48 h, read-out: GI
Note to self: values exactly at 50% are met. So inhibition of growth at 30 µM at or above 50% is met, below is not met.

// known answers, use as guide
Please indicate if the recorded inhibition of growth at 30 µM for C=C(C)[C@@H]1CC[C@]2(C(=O)O)CC[C@]3(C)[C@H](CC[C@@H]4[C@@]5(C)CC[C@H](OCc6cn(-c7ccc(C(=O)c8ccccc8)cc7)nn6)C(C)(C)[C@@H]5CC[C@]43C)[C@@H]12 meets or exceeds 50%.
not met

Please indicate if the recorded inhibition of growth at 30 µM for C=C(C)[C@@H]1CC[C@]2(C(=O)O)CC[C@]3(C)[C@H](CC[C@@H]4[C@@]5(C)CC[C@H](OCc6cn(-c7ccc(Cl)cc7)nn6)C(C)(C)[C@@H]5CC[C@]43C)[C@@H]12 meets or exceeds 50%.
not met

Please indicate if the recorded inhibition of growth at 30 µM for C=C(C)[C@@H]1CC[C@]2(C(=O)O)CC[C@]3(C)[C@H](CC[C@@H]4[C@@]5(C)CC[C@H](OCc6cn(-c7cccc(CO)c7)nn6)C(C)(C)[C@@H]5CC[C@]43C)[C@@H]12 meets or exceeds 50%.
met

Please turn your attention to the following entry.
Please indicate if the recorded inhibition of growth at 30 µM for C=C(C)[C@@H]1CC[C@]2(C(=O)O)CC[C@]3(C)[C@H](CC[C@@H]4[C@@]5(C)CC[C@H](OCc6cn(-c7ccccc7CO)nn6)C(C)(C)[C@@H]5CC[C@]43C)[C@@H]12 meets or exceeds 50%.
met

---

# System: THP-1
# procedure_details: Cytotoxicity against human THP1 cells after 48 hrs by SRB assay
# Format: functional, cell-based
# assay_context: THP-1, 48 h
endpoint_label: pIC50
Give bare numbers, as −log10 of the molar value.

Notebook: C=C(C)[C@@H]1CC[C@]2(C(=O)O)CC[C@]3(C)[C@H](CC[C@@H]4[C@@]5(C)CC[C@H](OCc6cn(C7O[C@H](COC(C)=O)[C@@H](OC(C)=O)[C@H](OC(C)=O)[C@H]7OC(C)=O)nn6)C(C)(C)[C@@H]5CC[C@]43C)[C@@H]12 (some centres not stated) , pIC50 read as 4.70

# ---- query compound ----
Notebook: C=C(C)[C@@H]1CC[C@]2(C(=O)O)CC[C@]3(C)[C@H](CC[C@@H]4[C@@]5(C)CC[C@H](OCc6cn(-c7cc(OC)c(OC)c(OC)c7)nn6)C(C)(C)[C@@H]5CC[C@]43C)[C@@H]12 , pIC50 read as 4.41

---

# Test system: HL-60
# procedure_details: Cytotoxicity against human HL60 cells at 10 uM after 48 hrs by SRB assay
# Type: functional
# assay_context: HL-60, 48 h, read-out: GI
Please provide measured inhibition of growth at 10 µM for the entries that follow.

Here is how some compounds turned out for inhibition of growth at 10 µM.
Notebook: C=C(C)[C@@H]1CC[C@]2(C(=O)O)CC[C@]3(C)[C@H](CC[C@@H]4[C@@]5(C)CC[C@H](OCc6cn(-c7ccc(Cl)cc7)nn6)C(C)(C)[C@@H]5CC[C@]43C)[C@@H]12 , inhibition of growth at 10 µM read as 61%

Notebook: C=C(C)[C@@H]1CC[C@]2(C(=O)O)CC[C@]3(C)[C@H](CC[C@@H]4[C@@]5(C)CC[C@H](OCc6cn(-c7ccc(OC)cc7)nn6)C(C)(C)[C@@H]5CC[C@]43C)[C@@H]12 , inhibition of growth at 10 µM read as 54%

Notebook: C=C(C)[C@@H]1CC[C@]2(C(=O)O)CC[C@]3(C)[C@H](CC[C@@H]4[C@@]5(C)CC[C@H](OCc6cn(-c7ccccc7CO)nn6)C(C)(C)[C@@H]5CC[C@]43C)[C@@H]12 , inhibition of growth at 10 µM read as 50%

Batch: inhibition of growth at 10 µM for all items listed.
1. C=C(C)[C@@H]1CC[C@]2(C(=O)O)CC[C@]3(C)[C@H](CC[C@@H]4[C@@]5(C)CC[C@H](OCc6cn(-c7cc(C)cc(O)c7)nn6)C(C)(C)[C@@H]5CC[C@]43C)[C@@H]12
2. C=C(C)[C@@H]1CC[C@]2(C(=O)O)CC[C@]3(C)[C@H](CC[C@@H]4[C@@]5(C)CC[C@H](OCc6cn(-c7cccc(OC)c7)nn6)C(C)(C)[C@@H]5CC[C@]43C)[C@@H]12
3. C=C(C)[C@@H]1CC[C@]2(C(=O)O)CC[C@]3(C)[C@H](CC[C@@H]4[C@@]5(C)CC[C@H](OCc6cn(-c7ccc([N+](=O)[O-])cc7)nn6)C(C)(C)[C@@H]5CC[C@]43C)[C@@H]12
4. C=C(C)[C@@H]1CC[C@]2(C(=O)O)CC[C@]3(C)[C@H](CC[C@@H]4[C@@]5(C)CC[C@H](OCc6cn(C7O[C@H](COC(C)=O)[C@H](OC(C)=O)[C@H](OC(C)=O)[C@H]7OC(C)=O)nn6)C(C)(C)[C@@H]5CC[C@]43C)[C@@H]12 (some centres undefined)
5. C=C(C)[C@@H]1CC[C@]2(C(=O)O)CC[C@]3(C)[C@H](CC[C@@H]4[C@@]5(C)CC[C@H](OCc6cn(C7O[C@H](COC(C)=O)[C@@H](OC(C)=O)[C@H](OC(C)=O)[C@H]7OC(C)=O)nn6)C(C)(C)[C@@H]5CC[C@]43C)[C@@H]12 (some centres undefined)
6. C=C(C)[C@@H]1CC[C@]2(C(=O)O)CC[C@]3(C)[C@H](CC[C@@H]4[C@@]5(C)CC[C@H](OCc6cn(-c7cc(I)ccc7C)nn6)C(C)(C)[C@@H]5CC[C@]43C)[C@@H]12
7. C=C(C)[C@@H]1CC[C@]2(C(=O)O)CC[C@]3(C)[C@H](CC[C@@H]4[C@@]5(C)CC[C@H](OCc6cn(-c7ccc(C#N)cc7)nn6)C(C)(C)[C@@H]5CC[C@]43C)[C@@H]12
8. C=C(C)[C@@H]1CC[C@]2(C(=O)O)CC[C@]3(C)[C@H](CC[C@@H]4[C@@]5(C)CC[C@H](OCc6cn(-c7cccc(I)c7)nn6)C(C)(C)[C@@H]5CC[C@]43C)[C@@H]12

24%
20%
63%
62%
52%
40%
15%
13%
